System: OVCAR-5 ovarian
assay_name: NCI tumour cell line growth inhibition, 48 h; in the data active = GI50 below about 0.43 µM; inactive = the rest
Classes used: active, inactive

- compound: "COc1ccc(CNc2cc(OC)cc(OC)c2)cc1"
  study_target: "OVCAR-5 ovarian"
  label: "inactive"
- compound: "FC(F)(F)c1cc(Nc2ccc3c(OCCCN4CCOCC4)cccc3n2)ccc1Cl"
  study_target: "OVCAR-5 ovarian"
  label: "inactive"
- compound: "COc1ccc2c(c1)O/C(=C\\c1cccc(OCC(=O)Nc3nc4ccccc4s3)c1)C2=O"
  study_target: "OVCAR-5 ovarian"
  label: "inactive"
- compound: "O=C1C(=O)c2ccc(Br)cc2-c2cc(Br)ccc21"
  study_target: "OVCAR-5 ovarian"
  label: "inactive"
- compound: "CC1(C)CCC(S(=O)(=O)c2ccc3c(c2)/C(=N\\O)c2cc(S(=O)(=O)N4CCC(O)(c5cccc(C(F)(F)F)c5)CC4)ccc2-3)CC1"
  study_target: "OVCAR-5 ovarian"
  label: "active"
- compound: "O=C1OCC(c2ccc(O)c(O)c2)=C1c1cc(O)c(O)c(O)c1"
  study_target: "OVCAR-5 ovarian"
  label: "inactive"
- compound: "ClCCN(CCCl)Cc1ccc(Nc2ccnc3cc(Cl)ccc23)cc1"
  study_target: "OVCAR-5 ovarian"
  label: "inactive"
- compound: "c1ccc2c(c1)O[As](O[As]1Oc3ccccc3O1)O2"
  study_target: "OVCAR-5 ovarian"
  label: "inactive"
- compound: "COC1=CC(c2ccc[nH]2)=N/C1=C\\c1[nH]c(C)c(C(=O)CCC(=O)Oc2ccc3c(c2)CCC2C3CC[C@]3(C)C(=O)CC[C@@H]23)c1C (stereo partly specified)"
  study_target: "OVCAR-5 ovarian"
  label: "inactive"
- compound: "CN(C(=O)C1CCCCC1)c1ccccc1I(=O)=O"
  study_target: "OVCAR-5 ovarian"
  label: "inactive"
- compound: "COc1ccc(C2C3=C(NC(=O)C2C#N)c2ccc4ccccc4c2OCC3)cc1 (stereo unspecified)"
  study_target: "OVCAR-5 ovarian"
  label: "inactive"
- compound: "COc1ccc2c(c1)C(=O)c1c-2c(NCCCN(C)C)nc2ccccc12"
  study_target: "OVCAR-5 ovarian"
  label: "inactive"
- compound: "C[C@@H]1O[C@@H](O[C@H]2C[C@@H](O)[C@]3(CO)C4C(CC[C@]3(O)C2)[C@@]2(O)CC[C@H](C3=CC(=O)OC3)[C@@]2(C)C[C@H]4O)[C@H](O)[C@H](O)[C@H]1O (stereo partly specified)"
  study_target: "OVCAR-5 ovarian"
  label: "active"
- compound: "CO/N=C(\\c1ccccc1)c1cnn(-c2ccccc2)c1N"
  study_target: "OVCAR-5 ovarian"
  label: "inactive"
- compound: "CCCC[C@@H]1NC(=O)[C@H](CCCCN)NC(=O)[C@H](CCCNC(=N)N)NC(=O)[C@H](CC(C)C)NC(=O)[C@@H](NC(=O)[C@H](Cc2cccc(Cl)c2)NC(=O)[C@@H]2CCCN2C(=O)[C@@H](NC(C)=O)C(C)C)CCSSC[C@@H](C(=O)N[C@@H](CCCCN)C(=O)N2CCC[C@H]2C(=O)N2CCC[C@H]2C(=O)N[C@@H](CCC(=O)O)C(N)=O)NC(=O)[C@H](Cc2ccccc2)NC(=O)[C@H](CO)NC(=O)[C@H](C)NC(=O)[C@@H]2CCCN2C1=O"
  study_target: "OVCAR-5 ovarian"
  label: "inactive"
- compound: "OCC(O)CC[CH2][Sn]([c]1ccccc1)([c]1ccccc1)[c]1ccccc1 (stereo unspecified)"
  study_target: "OVCAR-5 ovarian"
  label: "inactive"
